Test system: ATS95
Assay: qHTS profiling for inhibitors of Plasmodium falciparum proliferation (AID 504749); further: nearly all actives have a fitted effect of over 60% in size
Conditions: P. falciparum in erythrocytes, SYBR Green DNA, 72 h; series mostly up to 28.7 µM
Inconclusive results are not listed. Activity calls are given as the source filed them. The call rests on the fitted dose curve; in most records, active means well fitted inhibition curve with a large enough effect; inconclusive means small, poorly fitted or top-dose-only effect; inactive means flat fitted curve, though single readings scatter.
Outcome codes: 1.0 = active, 0.0 = inactive

>  <Compound>
CN1C(=O)CCC1c1cccnc1 (stereo not given)

>  <Category Label>
0.0

$$$$
>  <Compound>
C=C1/C(=C\C=C2/CCC[C@]3(C)[C@@H]([C@H](C)CCCC(C)(C)O)CC[C@@H]23)C[C@@H](O)C[C@@H]1O

>  <Category Label>
0.0

$$$$
>  <Compound>
CO[C@H]1/C=C/O[C@@]2(C)Oc3c(C)c(O)c4c(O)c(c(/C=N\N5CCN(C6CCCC6)CC5)c(O)c4c3C2=O)NC(=O)/C(C)=C\C=C\[C@H](C)[C@H](O)[C@@H](C)[C@@H](O)[C@@H](C)[C@H](OC(C)=O)[C@@H]1C

>  <Category Label>
1.0

$$$$
>  <Compound>
C[C@@H]1[C@H](O)[C@@H](C)/C=C/C=C/C=C/C=C/C=C/C=C/C=C/[C@H](O[C@@H]2O[C@H](C)[C@@H](O)[C@H](N)[C@@H]2O)C[C@@H]2O[C@](O)(C[C@@H](O)C[C@@H](O)[C@H](O)CC[C@@H](O)C[C@@H](O)CC(=O)O[C@H]1C)C[C@H](O)[C@H]2C(=O)O

>  <Category Label>
0.0

$$$$
>  <Compound>
COc1cc2c(cc1OC)C(c1ccccc1)CN(C)CC2 (stereo not given)

>  <Category Label>
0.0

$$$$
